- Test system: PBL migration across TNF-α/IFN-γ-stimulated endothelial cells (HDBEC)
- condition info: 24 h
Non-standard residues stand in square brackets, D forms with d. Residues, ends and D or L forms follow the SMILES beside them. pGlu = O=C1CC[C@@H](C(=O)O)N1
Assignment: determine reported pIC50 for the given compounds.
Numbers only, as −log10 of the molar value.

compound="CC(C)[C@@H](NC(=O)[C@H](N)[C@H](C)O)C(=O)N[C@H](CO)C(N)=O [tvs-NH2] (H-[dT]-[dV]-[dS]-NH2)" value_kind=pIC50 reading=10.62

## Input // returns reported pIC50 for input C[C@H](NC(=O)CNC(=O)[C@@H]1CCC(=O)N1)C(N)=O [[PyroGlu]-GA-NH2] ([pGlu]-Gly-Ala-NH2)
## Output 11.49
